This section presents IC50 values reported for Histone deacetylase 4 (Homo sapiens) in the literature.
Lab note - cut at 6 µM for IC50: true (1) if strictly below, false (0) if not.

COMPOUND	CLASSIFICATION
NNC(=O)c1ccc(Cn2cc(Cl)cn2)cc1	false (0)
COc1cc(-c2cc(-c3ccc(OCCCCC(=O)NO)cc3)[nH]c(=O)c2C#N)cc(OC)c1OC	false (0)
O=C(/C=C/c1ccc(O)c(Br)c1)CCCCc1ccccc1	false (0)
O=C(CCc1ccc(O)c(O)c1)c1ccccc1	false (0)
Cc1cccc(-n2c(SCc3ccc(C(=O)NO)cc3)nc3ccccc3c2=O)c1	true (1)
O=C(CCCCc1ccccc1)CCc1ccc(O)c(O)c1	false (0)
CC[C@H]1OC(=O)[C@H](C)[C@@H](O[C@H]2C[C@@](C)(OC)[C@@H](O)[C@H](C)O2)[C@H](C)[C@@H](O[C@@H]2O[C@H](C)C[C@H](N(C)Cc3ccc(-c4cn(CCCCCCC(=O)NO)nn4)cc3)[C@H]2O)[C@](C)(O)C[C@@H](C)CN(C)[C@H](C)[C@@H](O)[C@]1(C)O	true (1)
O=C(NO)c1ccc(CSc2nc3cc(Cl)ccc3c(=O)n2-c2ccc(Cl)cc2)cc1	false (0)
